Source of measurements: patent US20040121946A9

# target desc: HLA-A*0203 (Homo sapiens, UniProt P04439, A173T/D140Y/D185E/D98H/E277Q/G131W/G231S/I119V/I121R/I166T/I218V/L180W/L300P/L318F/N151K/N90K/P208A/P217A/Q86G/Q94H/R138H/R169H/T345S)
# Type: binding
# test settings: Table XXVII
pIC50: −log10 of the molar value. Where no end group is shown, it is not given here.
quantity: pIC50

In [3]: df
Out[3]:
   residue_sequence  quantity  measured
0         VLIQRNPQV     pIC50      6.87

----------
# System: HLA-DR molecules (DR1, DR4w4, DR7, DRB5*0101, DRB1*1501, DRB1*1101, DRB1*0802, DRB1*1302)
# measurement protocol: DR supertype cross-reactive binding
# Design: species or system human
# test settings: number of DR1, DR4w4, DR7 bound, Table XXIX
The compounds listed here are annotated with their DR147 Binding.
quantity: DR147 Binding

mol smiles	measured
CC[C@H](C)[C@H](NC(=O)[C@H](CCCCN)NC(=O)[C@H](CCCCN)NC(=O)[C@@H](N)CS)C(=O)N[C@@H](Cc1ccccc1)C(=O)NCC(=O)N[C@@H](CO)C(=O)N[C@@H](CC(C)C)C(=O)N[C@@H](C)C(=O)N[C@@H](Cc1ccccc1)C(=O)N[C@@H](CC(C)C)C(=O)N1CCC[C@H]1C(=O)N[C@@H](CCC(=O)O)C(=O)N[C@@H](CO)C(=O)N[C@@H](Cc1ccccc1)C(=O)O	2
CC(C)C[C@H](NC(=O)[C@H](CCC(=O)O)NC(=O)[C@@H](NC(=O)[C@@H](N)CCC(=O)O)[C@@H](C)O)C(=O)N[C@@H](CCCNC(=N)N)C(=O)N[C@@H](CCCCN)C(=O)N[C@H](C(=O)N[C@@H](CCCCN)C(=O)N[C@H](C(=O)N[C@@H](CC(C)C)C(=O)NCC(=O)N[C@@H](CO)C(=O)NCC(=O)N[C@@H](C)C(=O)N[C@@H](Cc1ccccc1)C(=O)O)C(C)C)C(C)C	2
CC[C@H](C)[C@H](NC(=O)[C@H](C)NC(=O)[C@@H](NC(=O)[C@@H]1CCCN1C(=O)[C@@H](NC(=O)[C@H](CCCCN)NC(=O)[C@@H](NC(=O)[C@H](CC(N)=O)NC(=O)[C@H](CCC(=O)O)NC(=O)CN)C(C)C)[C@@H](C)CC)C(C)C)C(=O)N[C@@H](CCCCN)C(=O)N[C@H](C(=O)N[C@@H](CC(C)C)C(=O)N[C@@H](CCCNC(=N)N)C(=O)N[C@@H](CCC(=O)O)C(=O)O)C(C)C	2

----------
# target desc: DRB1*0401 (DR4w4) (Homo sapiens, UniProt P01903+P01911, A100K/A169T/F76Y/I96L/K127E/L162R/M171V/N62H/P40V/Q125Y/R42H/S133A/S149N/S66Y/V115G/V209L/W38E)
# measurement protocol: HLA class II peptide binding assay, purified HLA
# test settings: Table XXa, DR 3a motif peptides; unit not given
Measured DR4w4 binding data accompanies every entry in the list below.

mol smiles	DR4w4 binding data
CC[C@H](C)[C@H](NC(=O)[C@H](CCCNC(=N)N)NC(=O)[C@H](CCSC)NC(=O)[C@@H](N)CCC(N)=O)C(=O)N[C@@H](CC(C)C)C(=O)N[C@@H](CCCCN)C(=O)N[C@@H](CCC(=O)O)C(=O)N[C@H](C(=O)N[C@@H](CCC(=O)O)C(=O)N[C@@H](CC(C)C)C(=O)N[C@@H](CCCNC(=N)N)C(=O)N[C@@H](CCCCN)C(=O)N[C@H](C(=O)N[C@@H](CCCCN)C(=O)N[C@H](C(=O)O)C(C)C)C(C)C)[C@@H](C)O	−0.0055
CC(C)C[C@H](NC(=O)[C@H](CC(=O)O)NC(=O)[C@H](CCCNC(=N)N)NC(=O)[C@H](Cc1c[nH]cn1)NC(=O)[C@@H](NC(=O)[C@H](CC(C)C)NC(=O)[C@H](CCCNC(=N)N)NC(=O)[C@@H](N)C(C)C)C(C)C)C(=O)N[C@@H](C)C(=O)N[C@@H](C)C(=O)N[C@@H](CCCNC(=N)N)C(=O)N[C@@H](CC(N)=O)C(=O)N[C@H](C(=O)N[C@@H](CC(C)C)C(=O)N[C@H](C(=O)O)C(C)C)C(C)C	0.0150
CC[C@H](C)[C@H](N)C(=O)N[C@@H](CCCCN)C(=O)N[C@@H](Cc1c[nH]c2ccccc12)C(=O)N[C@@H](CCSC)C(=O)N[C@@H](C)C(=O)N[C@@H](CC(C)C)C(=O)N[C@@H](CCC(=O)O)C(=O)N[C@@H](CO)C(=O)N[C@H](C(=O)N[C@@H](CC(C)C)C(=O)N[C@@H](CCCNC(=N)N)C(=O)N[C@@H](CCCNC(=N)N)C(=O)N[C@@H](CCCNC(=N)N)C(=O)N[C@@H](Cc1ccccc1)C(=O)N[C@H](C(=O)O)[C@@H](C)O)[C@@H](C)CC	0.0400
CC(C)C[C@H](NC(=O)[C@H](C)NC(=O)[C@H](CCC(N)=O)NC(=O)[C@H](Cc1c[nH]cn1)NC(=O)[C@@H]1CCCN1C(=O)[C@H](CC(N)=O)NC(=O)[C@H](CCCNC(=N)N)NC(=O)[C@H](Cc1ccccc1)NC(=O)[C@H](CC(C)C)NC(=O)[C@H](CCC(N)=O)NC(=O)[C@H](CC(=O)O)NC(=O)[C@@H](N)Cc1c[nH]c2ccccc12)C(=O)N[C@@H](CC(C)C)C(=O)N[C@@H](Cc1c[nH]cn1)C(=O)N[C@H](C(=O)O)[C@@H](C)O	−0.0055

----------
# target desc: DRB1*1302 (DR6w19) (Homo sapiens, UniProt P01903+P01911, A100E/A169T/K41T/L162R/M171V/P40S/Q125H/Q178H/Q39Y/Q99D/R42S/S66N/T262R/V115G/W38E/Y61H)
# Sequence (P01903 26-254 limits assumed, other chains not shown): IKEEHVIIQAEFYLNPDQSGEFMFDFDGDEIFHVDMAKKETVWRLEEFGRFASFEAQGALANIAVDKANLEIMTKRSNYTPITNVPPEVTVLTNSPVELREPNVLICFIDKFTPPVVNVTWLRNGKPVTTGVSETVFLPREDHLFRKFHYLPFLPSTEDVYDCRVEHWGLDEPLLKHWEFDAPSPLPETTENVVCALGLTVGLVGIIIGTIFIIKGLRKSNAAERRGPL
# measurement protocol: HLA class II peptide binding assay, purified HLA
# test settings: Table XIX, DR supermotif peptides; unit not given

mol smiles	DR6w19 binding data
CC[C@H](C)[C@H](NC(=O)[C@H](CCCNC(=N)N)NC(=O)CNC(=O)[C@H](CCCNC(=N)N)NC(=O)[C@@H](NC(=O)[C@@H](NC(=O)[C@H](CCC(N)=O)NC(=O)[C@H](CC(C)C)NC(=O)[C@H](CC(N)=O)NC(=O)[C@H](CCC(N)=O)NC(=O)[C@H](Cc1ccccc1)NC(=O)[C@@H](NC(=O)[C@H](CO)NC(=O)[C@@H](N)CC(C)C)C(C)C)C(C)C)[C@@H](C)CC)C(=O)N[C@@H](CC(C)C)C(=O)O	0.0057
CC[C@H](C)[C@H](NC(=O)[C@H](C)NC(=O)[C@@H](NC(=O)[C@@H]1CCCN1C(=O)[C@@H](NC(=O)[C@H](CCCCN)NC(=O)[C@@H](NC(=O)[C@H](CC(N)=O)NC(=O)[C@H](CCC(=O)O)NC(=O)CN)C(C)C)[C@@H](C)CC)C(C)C)C(=O)N[C@@H](CCCCN)C(=O)N[C@H](C(=O)N[C@@H](CC(C)C)C(=O)N[C@@H](CCCNC(=N)N)C(=O)N[C@@H](CCC(=O)O)C(=O)O)C(C)C	0.0004
CC(C)C[C@H](NC(=O)[C@H](CC(=O)O)NC(=O)[C@H](CCCNC(=N)N)NC(=O)[C@H](Cc1c[nH]cn1)NC(=O)[C@@H](NC(=O)[C@H](CC(C)C)NC(=O)[C@H](CCCNC(=N)N)NC(=O)[C@@H](N)C(C)C)C(C)C)C(=O)N[C@@H](C)C(=O)N[C@@H](C)C(=O)N[C@@H](CCCNC(=N)N)C(=O)N[C@@H](CC(N)=O)C(=O)N[C@H](C(=O)N[C@@H](CC(C)C)C(=O)N[C@H](C(=O)O)C(C)C)C(C)C	0.0430

----------
# Test system: HLA-DR molecules (DR1, DR4w4, DR7, DRB5*0101, DRB1*1501, DRB1*1101, DRB1*0802, DRB1*1302)
# measurement protocol: DR supertype cross-reactive binding
# Parameters: species or system human
# test settings: number of DR1, DR4w4, DR7 bound, Table XXVIII
# Lookup of reported DR147 Cross-binding keyed by entry

mol smiles	DR147 Cross-binding
CC[C@H](C)[C@H](NC(=O)[C@H](CCC(N)=O)NC(=O)[C@H](CCSC)NC(=O)[C@H](CS)NC(=O)[C@H](Cc1c[nH]c2ccccc12)NC(=O)[C@H](CC(N)=O)NC(=O)[C@H](CC(C)C)NC(=O)[C@@H](N)CC(C)C)C(=O)N[C@@H](C)C(=O)N[C@@H](CCCCN)C(=O)NCC(=O)N[C@@H](CCSC)C(=O)N[C@@H](CO)C(=O)N[C@@H](Cc1ccc(O)cc1)C(=O)N[C@@H](CC(C)C)C(=O)O	2
CC(C)C[C@H](NC(=O)[C@H](CCC(=O)O)NC(=O)[C@@H](NC(=O)[C@@H](N)CCC(=O)O)[C@@H](C)O)C(=O)N[C@@H](CCCNC(=N)N)C(=O)N[C@@H](CCCCN)C(=O)N[C@H](C(=O)N[C@@H](CCCCN)C(=O)N[C@H](C(=O)N[C@@H](CC(C)C)C(=O)NCC(=O)N[C@@H](CO)C(=O)NCC(=O)N[C@@H](C)C(=O)N[C@@H](Cc1ccccc1)C(=O)O)C(C)C)C(C)C	2
CC[C@H](C)[C@H](NC(=O)CNC(=O)[C@H](CC(C)C)NC(=O)[C@H](CC(C)C)NC(=O)[C@H](CCCNC(=N)N)NC(=O)[C@@H](N)CO)C(=O)N[C@@H](CS)C(=O)N[C@@H](CC(C)C)C(=O)N[C@H](C(=O)N[C@@H](CO)C(=O)N[C@H](C(=O)N[C@H](C(=O)N[C@@H](CCC(N)=O)C(=O)N[C@@H](CC(C)C)C(=O)N[C@H](C(=O)O)C(C)C)C(C)C)[C@@H](C)O)[C@@H](C)O	3
